# TEST_SETTINGS: human
EXPERIMENTAL_ENDPOINT: Hepatotoxicity (malignant tumour)

The compound identified as CC1Cc2ccccc2N1NC(=O)c1ccc(Cl)c(S(N)(=O)=O)c1 (stereo not given) [INDAPAMIDE] registered its Hepatotoxicity (malignant tumour) at 0

The compound identified as CC(C)(S)C(=O)N[C@@H](CS)C(=O)O registered its Hepatotoxicity (malignant tumour) at 0

====

# TEST_DESCRIPTION: Highest frequency of moderate liver toxicity observed during clinical trials, expressed as a percentage. [column '% BIOL' in source]
# TEST_SETTINGS: human
In this section we review reported Hepatotoxicity (moderate) values for a set of substances.
Quick reminder: number only, in %, skip the unit.

Example cases with answers are listed next.
SUBSTANCE | UNIT_NAME | Hepatotoxicity (moderate)
PEGVISOMANT | % | 0
ETARACIZUMAB | % | 77.8
SERRAPEPTASE | % | 0
COLESTIPOL | % | 0.8
RITUXIMAB | % | 5.6
INTERFERON ALFA-2A | % | 92

The substance identified as INTERFERON GAMMA-1A registered its Hepatotoxicity (moderate) at 65

The substance identified as BEMIPARIN SODIUM registered its Hepatotoxicity (moderate) at 0

The substance identified as GENTAMICIN registered its Hepatotoxicity (moderate) at 14.3

The substance identified as NADROPARIN CALCIUM registered its Hepatotoxicity (moderate) at 66.7

Hello, the source for this data is ChEMBL document CHEMBL3137667, in case you need it.
